Listed below: pIC50 values for each entry.
- target-under-test: various mutants of kinase EGFR (BaF3 cell lines stably transfected with kinase) (Homo sapiens, UniProt P00533, T790M, form not given)
- Construct: other: BaF3 cells stably transfected with EGFR Δ19Del/T790M; MTS, 48 h; other: BaF3 cell line stably transfected with EGFR Δ19Del/T790M; MTS, 48
- Sequence (P00533 with tags, fused parts or gaps DEL746-750/T790M, form open): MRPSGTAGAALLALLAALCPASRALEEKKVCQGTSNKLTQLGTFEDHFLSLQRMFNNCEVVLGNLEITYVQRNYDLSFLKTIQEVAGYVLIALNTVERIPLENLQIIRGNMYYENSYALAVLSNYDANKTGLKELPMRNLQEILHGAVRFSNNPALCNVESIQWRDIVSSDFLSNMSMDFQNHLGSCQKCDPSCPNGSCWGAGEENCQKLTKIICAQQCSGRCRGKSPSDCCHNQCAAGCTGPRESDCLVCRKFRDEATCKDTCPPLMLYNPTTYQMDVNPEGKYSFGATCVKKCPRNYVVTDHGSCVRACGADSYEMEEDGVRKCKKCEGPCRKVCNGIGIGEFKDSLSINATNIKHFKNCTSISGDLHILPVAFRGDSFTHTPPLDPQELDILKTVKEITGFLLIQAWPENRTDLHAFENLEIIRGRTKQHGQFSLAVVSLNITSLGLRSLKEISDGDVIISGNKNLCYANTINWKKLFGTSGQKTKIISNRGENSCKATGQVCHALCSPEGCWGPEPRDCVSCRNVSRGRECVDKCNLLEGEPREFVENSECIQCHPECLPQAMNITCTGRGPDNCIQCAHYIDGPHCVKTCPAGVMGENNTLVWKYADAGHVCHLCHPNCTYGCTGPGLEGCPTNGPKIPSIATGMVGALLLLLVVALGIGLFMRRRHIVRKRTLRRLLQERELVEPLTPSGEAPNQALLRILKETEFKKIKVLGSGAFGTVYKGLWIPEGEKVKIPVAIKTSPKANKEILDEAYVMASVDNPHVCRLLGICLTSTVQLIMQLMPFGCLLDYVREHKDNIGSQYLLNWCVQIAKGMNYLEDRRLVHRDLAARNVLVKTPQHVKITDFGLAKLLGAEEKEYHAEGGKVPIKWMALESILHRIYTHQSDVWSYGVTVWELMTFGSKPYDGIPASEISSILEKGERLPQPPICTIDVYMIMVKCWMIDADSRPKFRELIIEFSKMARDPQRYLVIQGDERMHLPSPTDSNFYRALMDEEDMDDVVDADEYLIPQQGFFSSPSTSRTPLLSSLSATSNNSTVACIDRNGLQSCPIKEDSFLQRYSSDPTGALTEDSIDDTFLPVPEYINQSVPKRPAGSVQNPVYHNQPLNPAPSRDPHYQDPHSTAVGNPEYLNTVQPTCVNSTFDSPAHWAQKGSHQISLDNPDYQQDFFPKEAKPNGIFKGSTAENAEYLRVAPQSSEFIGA
- experiment-notes: Growth inhibitory activity of compounds on BaF3 cell lines stably transfected with kinase (MTS, 48 h)
- Format: cell-based
- condition-details: BaF3 cells stably transfected with EGFR Δ19Del/T790M, read-out: IC50, growth inhibition, Δ19Del/T790M
pIC50: −log10 of the molar value.
observed-property: pIC50

compound: CCc1cc(Nc2ncc(Cl)c(Nc3ccc4nccnc4c3N(CC)S(C)(=O)=O)n2)c(OC)cc1N1CCN(C)CC1
observed-property: pIC50
reported: ≥ 7.30
--
compound: COc1cc(N2CCC(N3CCN(C)CC3)CC2)c(C)cc1Nc1ncc(Cl)c(Nc2ccc3nccnc3c2N(C2CC2)S(C)(=O)=O)n1
observed-property: pIC50
reported: ≥ 7.30
--
compound: CCc1cc(Nc2ncc(C(F)(F)F)c(Nc3ccc4nccnc4c3N(C)S(C)(=O)=O)n2)c(OC)cc1N1CCC(N(C)C)C1 (stereo not shown)
observed-property: pIC50
reported: ≥ 7.30
--
compound: COc1cc(N2CCC(N3CCN(C)CC3)CC2)ccc1Nc1ncc([N+](=O)[O-])c(Nc2ccc3nccnc3c2N(C)S(C)(=O)=O)n1
observed-property: pIC50
reported: 5.60 to 6.30
--
compound: CCc1cc(Nc2ncc(C)c(Nc3ccc4nccnc4c3N(C)S(C)(=O)=O)n2)c(OC)nc1N1CCC(N2CCN(C)CC2)CC1
observed-property: pIC50
reported: ≥ 7.30
--
compound: CCN(c1c(Nc2nc(Nc3cc(C)c(N4CCN(C)CC4)cc3OC)ncc2Cl)ccc2nccnc12)S(C)(=O)=O
observed-property: pIC50
reported: 6.30 to 7.30
--
compound: CCc1cc(Nc2ncc(C(F)(F)F)c(Nc3ccc4nccnc4c3N(C)S(C)(=O)=O)n2)c(OC)cc1N1CCC(N2CCN(C)CC2)CC1
observed-property: pIC50
reported: ≥ 7.30
--
compound: COc1cc(N2CCC(N3CCN(C)CC3)CC2)c(C)cc1Nc1ncc(F)c(Nc2ccc3nccnc3c2N(C)S(C)(=O)=O)n1
observed-property: pIC50
reported: 6.30 to 7.30
--
compound: COc1cc(N2CCC(N3CCN(C)CC3)CC2)c(CC2CC2)cc1Nc1ncc(Cl)c(Nc2ccc3nccnc3c2N(C)S(=O)(=O)C(F)(F)F)n1
observed-property: pIC50
reported: 5.60 to 6.30
--
compound: CCc1cc(Nc2ncc(Br)c(Nc3ccc4nccnc4c3N(C)S(C)(=O)=O)n2)c(OC)cc1N1CCC(N2CCN(C)CC2)CC1
observed-property: pIC50
reported: ≥ 7.30
--
compound: CCN(c1c(Nc2nc(Nc3cc(C)c(N4CCC(N(C)C)CC4)cc3OC)ncc2Cl)ccc2nccnc12)S(C)(=O)=O
observed-property: pIC50
reported: ≥ 7.30
--
compound: C=Cc1cc(Nc2ncc(Cl)c(Nc3ccc4nccnc4c3N(CC)S(C)(=O)=O)n2)c(OC(F)(F)F)cc1N1CCC(N2CCN(C)CC2)CC1
observed-property: pIC50
reported: ≥ 7.30
--
compound: C=Cc1cc(Nc2ncc([N+](=O)[O-])c(Nc3ccc4nccnc4c3N(C)S(C)(=O)=O)n2)c(OC(F)(F)F)cc1N1CCC(N2CCN(C)CC2)CC1
observed-property: pIC50
reported: 6.30 to 7.30

Where do the numbers come from? From patent US20230310428A1.
